compounds and their reported emission maximum
assay.comment: solvent given as SMILES
test.settings: in CC#N
Entry rule: numbers only, all in nm.

Example cases with answers are listed next.
[[record]]
compound = "CN1CCN(c2ccc3c4c(cccc24)C(=O)c2ccccc2-3)CC1"
numeric_readout = 619

[[record]]
compound = "N#Cc1ccc(-c2ccc(C3=CCCCC3)s2)s1"
numeric_readout = 448

[[record]]
compound = "N#CC(C#N)=C(/C=C/c1cc2c3c(c1)CCCN3CCC2)c1ccc2c3c(cccc13)CC2"
numeric_readout = 622

[[record]]
compound = "CC1(C)CC(/N=C/c2ccc3ccc4cccc5ccc2c3c45)CC(C)(C)N1[O]"
numeric_readout = 375

[[record]]
compound = "COc1cccc2cc(-c3ccc([N+](=O)[O-])cc3)c(=O)oc12"
numeric_readout = 363

[[record]]
compound = "COc1ccc(/C=C/C2=CC(/C=C/c3ccc(OC)cc3)=[O+][B-](OC(C)=O)(OC(C)=O)O2)cc1"
numeric_readout = 541

[[record]]
compound = "N#Cc1ccc(N/N=C/c2ccc3ccccc3c2O)cc1"
numeric_readout = 446

[[record]]
compound = "N#Cc1c2nc3ccccn3c2nc2c1nc1ccccn12"
numeric_readout = 495

[[record]]
compound = "CC1(C)Nc2cc(Cl)ccc2-c2[nH]c3ccccc3c(=O)c21"
numeric_readout = 496

[[record]]
compound = "CN(C)c1ccc(/C=C/c2ccc(C#N)cc2)cc1"
numeric_readout = 530


Recall and state the measured emission maximum for F[B-]1(F)n2c(Cl)ccc2C(c2c(Cl)cccc2Cl)=C2C=CC(NCc3ccccc3)=[N+]21 .
532

Recall and state the measured emission maximum for C[Si](C)(c1cccc2cc3ccccc3cc12)[Si](C)(C)c1cccc2cc3ccccc3cc12 .
412

Recall and state the measured emission maximum for C(=C\c1c2ccccc2cc2ccccc12)/c1ccc2ccccc2c1 .
490

Recall and state the measured emission maximum for Cc1nnc(-c2cc(-n3c4ccccc4c4ccccc43)c(-n3c4ccccc4c4ccccc43)cc2-c2nnc(C)o2)o1 .
504.62

Recall and state the measured emission maximum for COc1ccc2c(c1)nc(-c1ccccc1)n2-c1ccccc1 .
391

###

assay.comment: solvent given as SMILES
test.settings: in CCCCCO
reported.property: emission maximum (nm)
Entry rule: numbers only, all in nm.

Example cases with answers are listed next.
[[record]]
molecule = "O=C1CCCC2=C1CC1=C(CCCC1=O)N2NC(=O)c1ccc(O)cc1"
reported_property = "emission maximum"
numeric_readout = 447

[[record]]
molecule = "COc1ccc(/C=C/c2ccc(-c3nnc(-c4ccc(-c5cc6ccccc6s5)cc4)o3)cc2)cc1"
reported_property = "emission maximum"
numeric_readout = 436

[[record]]
molecule = "COC(=O)C(Cc1ccc2oc(-c3ccc(Nc4ccccc4)cc3)nc2c1)NC(=O)OC(C)(C)C (stereo unspecified)"
reported_property = "emission maximum"
numeric_readout = 424

[[record]]
molecule = "FC(F)(F)c1ccc(/C=C/c2ccc(-c3nnc(-c4ccc(-c5cc6ccccc6s5)cc4)o3)cc2)cc1"
reported_property = "emission maximum"
numeric_readout = 393

[[record]]
molecule = "CN1CCN(c2ccc3c4c(cccc24)C(=O)c2ccccc2-3)CC1"
reported_property = "emission maximum"
numeric_readout = 635


Here's the next entry for you.
Recall and state the measured emission maximum for ClC(Cl)=C1c2ccccc2C(C2(Cl)c3ccccc3C(=C(Cl)Cl)c3ccccc32)c2ccccc21 (stereo unspecified) .
442.64

###

assay.comment: solvent given as SMILES
test.settings: in CCCCCC
Binarize emission maximum at 400 nm; below is 1, at or above is -1.

Solved entries:
[[record]]
compound = "COc1cc(OC)c(C2=C3C(C)=CC(C)=[N+]3[B-](F)(F)n3c(C)cc(C)c32)c(OC)c1"
class_label = -1

[[record]]
compound = "CC1=CC(C)=[N+]2C1=Cc1c3ccccc3c(C#Cc3ccccc3)n1[B-]2(F)F"
class_label = -1

[[record]]
compound = "CCC1=C(C)C2=C(c3c4ccccc4c(C)c4ccccc34)c3c(C)c(CC)c(C)n3[B-](F)(F)[N+]2=C1C"
class_label = -1

[[record]]
compound = "CC(C)(C)c1cc2cc(N(c3ccccc3)c3ccccc3)c3cc(C(C)(C)C)cc4cc(N(c5ccccc5)c5ccccc5)c(c1)c2c43"
class_label = -1

[[record]]
compound = "Cc1ccc(C#Cc2ccc3ccc4cccc5ccc2c3c45)cc1"
class_label = 1

[[record]]
compound = "CC1=CC(C)=[N+]2C1=C(c1c3ccccc3c(C)c3ccccc13)c1c(C)cc(C)n1[B-]2(F)F"
class_label = -1


Record COc1ccc(C#Cc2ccc(C#N)cc2)cc1OC : is its emission maximum strictly below 400 nm?
1

Record COC1=[N+]2C(=C(c3ccccc3)c3ccc(OC)n3[B-]2(F)F)C=C1SC#N : is its emission maximum strictly below 400 nm?
-1

###

assay.comment: solvent given as SMILES
test.settings: in CS(C)=O
reported.property: emission maximum (nm)
Entry rule: numbers only, all in nm.

Example cases with answers are listed next.
[[record]]
compound = "CSc1sc(C(N)=O)c2nnn(C)c(=O)c12"
reading_unit = "nm"
numeric_readout = 527

[[record]]
compound = "CN(C)c1ccc(/C=C/c2nc3ccc(N(C)C)cc3oc2=O)cc1"
reading_unit = "nm"
numeric_readout = 666


Recall and state the measured emission maximum for CN(C)c1ccc(/C=C/c2cc[n+](C)cc2)cc1 .
610

Recall and state the measured emission maximum for Clc1ccc(-c2c3nc(c(-c4ccc(Cl)cc4)c4ccc([nH]4)c(-c4ccc(Cl)cc4)c4nc(c(-c5ccc(Cl)cc5)c5ccc2[nH]5)C=C4N2CCOCC2)C=C3)cc1 .
662

Recall and state the measured emission maximum for FC(F)(F)c1ccc(/C=C/c2ccc(-c3nnc(-c4ccc(-c5cc6ccccc6s5)cc4)o3)cc2)cc1 .
397

Recall and state the measured emission maximum for CCCCC[n+]1ccc(/C=C/c2ccc(N(C)C)c3ccccc23)c2ccccc21 .
720

Recall and state the measured emission maximum for O=C1CC(=O)Nc2cc([N+](=O)[O-])ccc2N1 .
403

Recall and state the measured emission maximum for O=C(O)CCCOc1cccc(-c2c3nc(cc4ccc([nH]4)c(-c4cccc(OCCCC(=O)O)c4)c4nc(cc5ccc2[nH]5)CC4)C=C3)c1 .
649

Recall and state the measured emission maximum for CN(C)c1ccc2cc(C(/C=C/c3cn(C)c4ccccc34)=C(C#N)C#N)c(=O)oc2c1 .
555

###

assay.comment: solvent given as SMILES
test.settings: in C1CCOC1
Binarize emission maximum at 500 nm; below is rule met, at or above is rule not met.

[[record]]
compound = "CCCCCCCCCCCCNc1cccc2[n+]1[B-](F)(F)n1c(c3cccc4cccc1c43)=N2"
class_label = "rule not met"

[[record]]
compound = "CN(C)c1ccc(/C=C/C(=O)c2ccc(Cl)cc2)cc1"
class_label = "rule not met"

[[record]]
compound = "COc1ccc(-n2c3ccccc3c3cc(/C=C/C(=C(C#N)C#N)c4ccccc4)ccc32)cc1"
class_label = "rule not met"


Record CC(C)(C)c1cc2cc(N(c3ccccc3)c3ccccc3)c3cc(C(C)(C)C)cc4cc(N(c5ccccc5)c5ccccc5)c(c1)c2c43 : is its emission maximum strictly below 500 nm?
rule met

Record c1ccc2c(c1)-c1ccccc1C21c2ccccc2-c2c1c1c3ccccc3ccc1c1ccccc21 : is its emission maximum strictly below 500 nm?
rule met

Record CCCCCCCCCCCCOc1ccc(C#Cc2ccc(C#Cc3ccc(OCCCCCCCCCCCC)c(OCCCCCCCCCCCC)c3)c3nc4c5ccccc5c5ccccc5c4nc23)cc1OCCCCCCCCCCCC : is its emission maximum strictly below 500 nm?
rule not met

Record COc1cc2c(cc1-c1ccc(C=O)cc1)Cc1c3c(c4c(c1-2)-c1cc(OC)c(-c2ccc(C=O)cc2)cc1C4)C(=O)N(CCC(C)C)C3=O : is its emission maximum strictly below 500 nm?
rule met

Record CC(O)CC1=N/C(=C\c2cccc(N(C)C)c2)C(=O)N1C (stereo not drawn) : is its emission maximum strictly below 500 nm?
rule not met

Record N#Cc1ccc(-c2ccc(C3=CCC(c4ccccc4)CC3)s2)s1 (stereo not drawn) : is its emission maximum strictly below 500 nm?
rule met

Record CN(C)c1ccc2cc3c(cc2c1)OCCN=C3 : is its emission maximum strictly below 500 nm?
rule met

Record c1ccc2cc3c(cc2c1)oc1c2oc4cc5ccccc5cc4c2c2ccccc2c31 : is its emission maximum strictly below 500 nm?
rule met

###

assay.comment: solvent given as SMILES
test.settings: in CO
compounds and their reported emission maximum
Entry rule: numbers only, all in nm.

Example cases with answers are listed next.
[[record]]
compound = "CN(C)c1ccc(/C=C/C=C2\\CC/C(=C\\c3ccc(N(C)C)cc3)C2=O)cc1"
numeric_readout = 737

[[record]]
compound = "Cc1cccc(Nc2ccccc2C(=O)O)c1C"
numeric_readout = 390

[[record]]
compound = "CCCCCC(=O)c1c2c(c(C(=O)CCCCC)c3c1OC1(CCCC1)O3)OC1(CCCC1)O2"
numeric_readout = 611

[[record]]
compound = "COc1ccc(/C=C/c2ccc(/C=C/c3cc[n+]4ccc(/C=C/c5ccc(/C=C/c6ccc(OC)cc6)cc5)cc4c3)cc2)cc1"
numeric_readout = 620


Here's the next entry for you.
Recall and state the measured emission maximum for Nc1ccc(/C=C2\OC(=O)c3ccccc32)cc1 .
552.49
